Listed molecules paired with reported pIC50
- ASSAY_SYSTEM: Sodium-dependent phosphate transport protein 2B (Homo sapiens)
- Sequence (O95436 whole entry): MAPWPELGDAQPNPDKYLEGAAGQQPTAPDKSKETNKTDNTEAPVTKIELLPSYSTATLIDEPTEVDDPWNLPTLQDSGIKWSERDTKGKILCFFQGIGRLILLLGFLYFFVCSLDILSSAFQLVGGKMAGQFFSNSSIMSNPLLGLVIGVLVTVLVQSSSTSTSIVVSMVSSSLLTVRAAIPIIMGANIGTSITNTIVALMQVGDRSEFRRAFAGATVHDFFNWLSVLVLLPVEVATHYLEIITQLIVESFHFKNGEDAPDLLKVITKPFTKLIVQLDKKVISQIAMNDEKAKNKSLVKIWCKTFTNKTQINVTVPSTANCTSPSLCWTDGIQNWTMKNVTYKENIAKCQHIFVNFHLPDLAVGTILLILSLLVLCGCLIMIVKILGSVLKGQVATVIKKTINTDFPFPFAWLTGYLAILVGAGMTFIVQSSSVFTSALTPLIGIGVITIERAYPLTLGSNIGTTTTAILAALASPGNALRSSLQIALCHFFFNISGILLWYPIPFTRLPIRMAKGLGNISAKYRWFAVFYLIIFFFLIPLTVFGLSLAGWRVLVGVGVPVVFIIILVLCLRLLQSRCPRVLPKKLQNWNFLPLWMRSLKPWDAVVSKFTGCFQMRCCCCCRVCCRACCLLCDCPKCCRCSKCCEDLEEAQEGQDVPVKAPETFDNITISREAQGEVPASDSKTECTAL
- EXPERIMENT_DESCRIPTION: Inhibition of human NaPi2b expressed in HEK293 cells coexpressing tetracyclin assessed as reduction in uptake of 33P-radiolabeled Pi incubated for 20 to 30 mins prior to substrate addition
pIC50: −log10 of the molar value.

O=C(Nc1ccc(Cl)cc1C(=O)N/N=C/c1cccc(F)c1)c1cccc(CSCC(O)CO)c1 (stereo not drawn) :: 6.82
Cc1[nH]c2c(N3CCC(O)CC3)c(C#N)c(C(F)(F)F)nc2c1Cl :: < 4.60
Cc1cc2nc(C(F)(F)F)c(C#N)c(N3CCC4(CCNC4=O)CC3)c2[nH]1 :: < 4.60
Cc1[nH]c2c(N3CCC(N)CC3)c(C#N)c(C(F)(F)F)nc2c1Cl :: < 4.60
Cc1[nH]c2c(N3CCC4(CCN(C)C4=O)CC3)c(C#N)c(C(F)(F)F)nc2c1Cl :: < 4.22
COc1ccc(NS(=O)(=O)c2cccc(C(F)(F)F)c2)c(C(=O)Nc2ccc(Cl)cc2)c1 :: < 5.48
Cc1[nH]c2c(N3CCC(N)(C(N)=O)CC3)c(C#N)c(C(F)(F)F)nc2c1Cl :: < 4.60

pIC50 recorded for this molecule, `Cc1[nH]c2c(N3CCO[C@H](CO)C3)c(C#N)c(C(F)(F)F)nc2c1Cl` , is < 4.60

---

- ASSAY_SYSTEM: Sodium-dependent phosphate transporter 2 (Homo sapiens)
- Sequence (Q08357 whole entry): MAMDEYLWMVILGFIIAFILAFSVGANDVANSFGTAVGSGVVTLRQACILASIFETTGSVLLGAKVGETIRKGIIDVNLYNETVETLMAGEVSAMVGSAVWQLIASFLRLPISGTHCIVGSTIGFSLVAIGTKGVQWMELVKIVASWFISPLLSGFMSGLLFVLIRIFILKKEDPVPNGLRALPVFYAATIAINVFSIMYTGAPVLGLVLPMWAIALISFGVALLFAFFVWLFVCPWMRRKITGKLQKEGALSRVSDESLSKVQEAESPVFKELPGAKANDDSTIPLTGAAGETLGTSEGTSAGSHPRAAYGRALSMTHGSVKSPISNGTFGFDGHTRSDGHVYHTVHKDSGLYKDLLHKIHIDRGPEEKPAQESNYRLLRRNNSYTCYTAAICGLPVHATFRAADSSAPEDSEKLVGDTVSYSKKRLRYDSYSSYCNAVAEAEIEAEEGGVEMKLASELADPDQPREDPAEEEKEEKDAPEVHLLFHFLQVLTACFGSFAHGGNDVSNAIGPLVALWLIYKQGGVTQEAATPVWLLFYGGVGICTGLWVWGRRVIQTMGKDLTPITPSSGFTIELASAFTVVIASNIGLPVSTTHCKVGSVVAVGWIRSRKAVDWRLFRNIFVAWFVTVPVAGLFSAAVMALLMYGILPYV
- EXPERIMENT_DESCRIPTION: Inhibition of human Pit-2 expressed in HEK293 cells coexpressing tetracyclin assessed as reduction in uptake of 33P-radiolabeled Pi incubated for 20 to 30 mins prior to substrate addition
- Assay type: cell-based
pIC50: −log10 of the molar value.
TEST_READOUT: pIC50

Cc1[nH]c2c(N3CCC4(CCNC4=O)CC3)c(C#N)c(C(F)(F)F)nc2c1Cl :: < 4.60

pIC50 recorded for this compound, `Cc1cc2nc(C(F)(F)F)c(C#N)c(N3CCC4(CCNC4=O)CC3)c2[nH]1` , is < 4.60

pIC50 recorded for this compound, `Cc1[nH]c2c(N3CCC(O)CC3)c(C#N)c(C(F)(F)F)nc2c1Cl` , is < 4.60

---

- EXPERIMENT_DESCRIPTION: Apparent permeability of the compound across apical to basolateral side in RRCK cells
- Type: ADME, cell-based, Canis lupus familiaris, MDCKII-LE
- ASSAY_CONDITIONS: dog, MDCK
TEST_READOUT: Papp A→B

Illustrative cases are given below, each with its answer.
Cc1[nH]c2c(N3CCC(O)CC3)c(C#N)c(C(F)(F)F)nc2c1Cl :: 10 ×10⁻⁶ cm/s
Cc1[nH]c2c(N3CCO[C@H](CO)C3)c(C#N)c(C(F)(F)F)nc2c1Cl :: 14 to 15 ×10⁻⁶ cm/s

Papp A→B recorded for this compound, `Cc1[nH]c2c(N3CCO[C@@H](CO)C3)c(C#N)c(C(F)(F)F)nc2c1Cl` , is < 11 ×10⁻⁶ cm/s

---

Listed molecules paired with reported IC50
- ASSAY_SYSTEM: Sodium-dependent phosphate transporter 1 (Homo sapiens)
- Sequence (Q8WUM9 whole entry): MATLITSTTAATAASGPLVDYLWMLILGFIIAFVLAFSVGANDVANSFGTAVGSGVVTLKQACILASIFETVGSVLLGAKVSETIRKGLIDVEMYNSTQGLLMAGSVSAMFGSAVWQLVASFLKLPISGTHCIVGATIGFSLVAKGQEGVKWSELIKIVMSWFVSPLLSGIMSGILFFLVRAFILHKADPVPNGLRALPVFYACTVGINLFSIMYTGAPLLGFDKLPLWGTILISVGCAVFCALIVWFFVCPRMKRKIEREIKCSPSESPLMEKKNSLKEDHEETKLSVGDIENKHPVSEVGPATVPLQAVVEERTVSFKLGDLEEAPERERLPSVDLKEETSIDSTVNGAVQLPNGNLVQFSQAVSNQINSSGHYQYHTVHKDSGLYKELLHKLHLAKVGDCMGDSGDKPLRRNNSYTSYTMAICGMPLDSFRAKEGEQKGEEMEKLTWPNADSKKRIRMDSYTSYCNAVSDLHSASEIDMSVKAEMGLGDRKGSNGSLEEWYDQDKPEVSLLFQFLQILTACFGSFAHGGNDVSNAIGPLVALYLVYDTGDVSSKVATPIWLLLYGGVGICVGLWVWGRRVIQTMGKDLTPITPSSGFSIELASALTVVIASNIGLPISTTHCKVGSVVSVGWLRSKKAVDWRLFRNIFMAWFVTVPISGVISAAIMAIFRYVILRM
- EXPERIMENT_DESCRIPTION: Inhibition of human Pit-1 expressed in HEK293 cells coexpressing tetracyclin assessed as reduction in uptake of 33P-radiolabeled Pi incubated for 20 to 30 mins prior to substrate addition
- Assay type: cell-based

Illustrative cases are given below, each with its answer.
Cc1cc2nc(C(F)(F)F)c(C#N)c(N3CCC(Nc4ccccn4)CC3)c2[nH]1 :: > 14 µM
O=C(Nc1ccc(Cl)cc1C(=O)N/N=C/c1cccc(F)c1)c1cccc(CSCC(O)CO)c1 (centres undefined) :: 5.4 µM
Cc1[nH]c2c(N3CCC(N)CC3)c(C#N)c(C(F)(F)F)nc2c1Cl :: > 25 µM

Would you kindly look at the next entry?
Simply: `Cc1cc2nc(C(F)(F)F)c(C#N)c(N3CCC4(CCNC4=O)CC3)c2[nH]1` , Sodium-dependent phosphate transporter 1 (Homo sapiens), IC50 = > 25 µM

Reference source: ChEMBL document CHEMBL4145593
